tested on: 556581-035-R-J1-PDC complex spheroid growth; test: Anticancer human tumor 556581-035-R-J1-PDC patient-derived ovarian carcinoma cell line growth inhibition [AhR]; settings: second compound 3.16 µM; first compound 10 µM; active compounds read low;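 further: compound exposure lasted 7 days; 100% = DMSO vehicle control growth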
Result Type: viability, T/C (%)
All answers are understood in %, so give the number only.

Completed entries (count: 4):
[
  {
    "Compound": "COc1cc(Nc2ncc3c(n2)-c2ccc(Cl)cc2C(c2c(F)cccc2OC)=NC3)ccc1C(=O)O + Cc1ccccc1N=Nc1ccc(NC(=O)c2ccnn2C)c(C)c1",
    "Result Unit": "%",
    "viability, T/C": 49.2
  },
  {
    "Compound": "NS(=O)(=O)OCC1CC(n2ccc3c(NC4CCc5ccccc54)ncnc32)CC1O (configuration not stated) + Cc1cncc(-c2nc(NCCc3c[nH]c4ccccc34)c3ncn(C(C)C)c3n2)c1",
    "Result Unit": "%",
    "viability, T/C": 49.5
  },
  {
    "Compound": "CC1(C)CCC(CN2CCN(c3ccc(C(=O)NS(=O)(=O)c4ccc(NCC5CCOCC5)c([N+](=O)[O-])c4)c(Oc4cnc5[nH]ccc5c4)c3)CC2)=C(c2ccc(Cl)cc2)C1 + Cc1ccccc1N=Nc1ccc(NC(=O)c2ccnn2C)c(C)c1",
    "Result Unit": "%",
    "viability, T/C": 90.3
  },
  {
    "Compound": "Nc1ccn(C2OC(CO)C(O)C2(F)F)c(=O)n1 (configuration not stated) + CC(CO)NC(=O)c1cc(-c2ccc(Cl)cc2)nn(-c2cnn(C)c2)c1=O",
    "Result Unit": "%",
    "viability, T/C": 34.3
  }
]

Item: COc1ccc([C@@H](O)c2cc(-c3ncnc4cc(N5CCOCC5)ccc34)c(F)cc2Cl)nn1 + CC(CO)NC(=O)c1cc(-c2ccc(Cl)cc2)nn(-c2cnn(C)c2)c1=O | System: 556581-035-R-J1-PDC complex spheroid growth | viability, T/C: 51.7

Item: O=C(C=Cc1cccc(S(=O)(=O)Nc2ccccc2)c1)NO + Cc1cncc(-c2nc(NCCc3c[nH]c4ccccc34)c3ncn(C(C)C)c3n2)c1 | System: 556581-035-R-J1-PDC complex spheroid growth | viability, T/C: 6.45

Item: O=C(C=Cc1cccc(S(=O)(=O)Nc2ccccc2)c1)NO + CC(CO)NC(=O)c1cc(-c2ccc(Cl)cc2)nn(-c2cnn(C)c2)c1=O | System: 556581-035-R-J1-PDC complex spheroid growth | viability, T/C: 3.83

Hey, just so you know, these numbers are from PubChem BioAssay AID1918999.
